- Tested on: Mycobacterium tuberculosis
- Test Method Notes: Inhibition of Mycobacterium tuberculosis Zinc metalloprotease-1 at 40 uM using angiotensin 2 as substrate preincubated for 3 mins and measured after 20 mins by MALDI-TOF MS analysis relative to control
The threshold is inclusive: inhibition of exactly 30% counts as YES; values below receive NO.

C=CCONC(=O)C(C)N1C(=O)S/C(=C\CCCC)C1=O (stereo unspecified)    YES
C=CCONC(=O)CN1C(=O)S/C(=C\c2ccccc2)C1=O    YES
CCCC/C=C1\SC(=O)N(CC(=O)NOCc2ccccc2)C1=O    YES
C=CCONC(=O)C(C)N1C(=O)S/C(=C\c2ccccc2)C1=O (stereo unspecified)    NO

Incoming: Record `O=C(CN1C(=O)CSC1=O)NOCc1ccccc1` ; criterion: inhibition no lower than 30%. Met?
Outgoing: YES

Incoming: Record `O=C(CN1C(=O)S/C(=C\c2ccc(C(F)(F)F)cc2)C1=O)NOCc1ccccc1` ; criterion: inhibition no lower than 30%. Met?
Outgoing: YES

Incoming: Record CC(C(=O)NOCc1ccccc1)N1C(=O)S/C(=C\c2ccc(C(F)(F)F)cc2)C1=O (stereo unspecified) ; criterion: inhibition no lower than 30%. Met?
Outgoing: NO

Incoming: Record CC(C(=O)NOCc1ccccc1)N1C(=O)S/C(=C\c2ccccc2)C1=O (stereo unspecified) ; criterion: inhibition no lower than 30%. Met?
Outgoing: YES

Incoming: Record C=CCONC(=O)C(C)N1C(=O)CSC1=O (stereo unspecified) ; criterion: inhibition no lower than 30%. Met?
Outgoing: YES

Incoming: Record `O=C(CN1C(=O)S/C(=C\c2ccccc2)C1=O)NOCc1ccccc1` ; criterion: inhibition no lower than 30%. Met?
Outgoing: YES

Incoming: Record C=CCONC(=O)C(C)N1C(=O)S/C(=C\c2ccc(F)cc2)C1=O (stereo unspecified) ; criterion: inhibition no lower than 30%. Met?
Outgoing: YES
